Where do these numbers come from? They come from ChEMBL document CHEMBL1201862.

System: NCI-H23
Assay: NCI tumour cell line growth inhibition, 48 h
Active and inactive are the calls of the source. Cut-off read from the data, not from the text of the source: active = GI50 up to about 1.1 µM and inactive = higher.

{"compound": "Nc1ncc(CN2CCCC2)c(-c2ccccc2O)n1", "GI50": "> 750 µM (inactive)"}
{"compound": "CCCC(=O)N/S(=N/S(=O)(=O)c1ccc(Cl)cc1)C(Cl)(Cl)Cl (stereo unspecified)", "GI50": "> 100 µM (inactive)"}
{"compound": "Cc1cc(NS(=O)(=O)c2ccc(NC(=O)c3ccc(Cl)c4c(Nc5ccc(S(N)(=O)=O)cc5)c5ccccc5nc34)cc2)no1", "GI50": "23.4 µM (inactive)"}
{"compound": "COc1cc(C2c3cc4c(cc3OC3(O)COC(=O)C23)OCO4)cc(OC)c1OC (stereo unspecified)", "GI50": "34.8 µM (inactive)"}
{"compound": "CCOC(=O)C1S/C(=N/c2ccc(Cl)cc2C)N=C1C (stereo unspecified)", "GI50": "16.5 µM (inactive)"}
{"compound": "Nc1nc(N)c2ncn(CCCC(c3ccccc3)P(=O)(O)O)c2n1 (stereo unspecified)", "GI50": "19.2 µM (inactive)"}
{"compound": "C=CCOC1=C(OCC=C)C(C2COC(C)(C)O2)OC1=O (stereo unspecified)", "GI50": "> 100 µM (inactive)"}
{"compound": "C[C@@H]1[C@H](c2ccccc2)O[B-]2(c3ccc(Br)cc3)OC(=O)C[N+]12C (stereo partly specified)", "GI50": "> 100 µM (inactive)"}
{"compound": "C=CCNC(=S)N1CC(C)C(=O)Nc2cc(Cl)ccc21 (stereo unspecified)", "GI50": "> 100 µM (inactive)"}
{"compound": "C=CCNC1=C(C(=O)OCC)C(=O)CO1", "GI50": "> 100 µM (inactive)"}
{"compound": "Cc1cc(-c2c(F)cc3c4nn([C@H]5CC[C@@H](N(C)C)CC5)c(=O)c-4cn(C4CC4)c3c2F)cc(C)n1", "GI50": "0.132 µM (active)"}

* * *

Test system: SK-MEL-28
Experiment: NCI tumour cell line growth inhibition, 48 h
Active and inactive are the calls of the source. Rule as the data show it: active = GI50 up to about 1.1 µM and inactive = higher.

{"compound": "CC1OC2=N[C@@H]1C(=O)N[C@@H](Cc1ccccc1)C1=N[C@H](C(=O)N[C@@H](Cc3ccccc3)C3=N[C@H](C(=O)N[C@H]2Cc2ccccc2)C(C)O3)C(C)O1 (some centres not stated)", "tgt": "SK-MEL-28", "GI50": "26.5 µM (inactive)"}
{"compound": "CC(C)(C)OC(=O)N1CCC(C(=O)O)CC1", "tgt": "SK-MEL-28", "GI50": "> 100 µM (inactive)"}
{"compound": "CCOC(=O)/C(C#N)=C/c1[nH]c(C(=O)OCc2ccccc2)c(C)c1C", "tgt": "SK-MEL-28", "GI50": "> 100 µM (inactive)"}
{"compound": "c1ccc(N/N=N/c2ccc(-c3nc4ccccc4o3)cc2)nc1", "tgt": "SK-MEL-28", "GI50": "61.5 µM (inactive)"}
{"compound": "CCOC(=O)/C=C(/C(=O)OCC)n1c(=O)c(C)cn(C2CC(N=[N+]=[N-])C(CO)O2)c1=O (configuration not stated)", "tgt": "SK-MEL-28", "GI50": "29.4 µM (inactive)"}
{"compound": "C=CCN1CCC(c2cc(C(=O)OCC)[nH]c2-c2cc(C)no2)C1=O (configuration not stated)", "tgt": "SK-MEL-28", "GI50": "> 100 µM (inactive)"}
{"compound": "O=C(O)CNC(=O)c1c2ccccc2nc2ccccc12", "tgt": "SK-MEL-28", "GI50": "> 100 µM (inactive)"}
{"compound": "O=C1N/C(=N/N=C\\C(O)C(O)C(O)C(O)CO)N/C1=C\\c1ccc(Cl)cc1 (configuration not stated)", "tgt": "SK-MEL-28", "GI50": "8.55 µM (inactive)"}
{"compound": "O=S(=O)(c1ccccc1)n1c(C(O)c2ccccc2)cc2ccccc21 (configuration not stated)", "tgt": "SK-MEL-28", "GI50": "19.6 µM (inactive)"}
{"compound": "NCCNCC1CCNCC1", "tgt": "SK-MEL-28", "GI50": "> 100 µM (inactive)"}
{"compound": "O=C(NCCO)c1ccc(Cl)cc1", "tgt": "SK-MEL-28", "GI50": "> 100 µM (inactive)"}
{"compound": "CN(C)c1ccc(/C=C(/NC(=O)c2ccccc2)C(=O)Nc2ccccc2C(=O)O)cc1", "tgt": "SK-MEL-28", "GI50": "> 100 µM (inactive)"}
{"compound": "CCOC(=O)CC1(O)CCCCC1(Sc1ccc(C)cc1)Sc1ccc(C)cc1 (configuration not stated)", "tgt": "SK-MEL-28", "GI50": "39.2 µM (inactive)"}
{"compound": "CSC1=C(C(=O)Nc2ccc(Cl)cc2)C(N)=NC1=O", "tgt": "SK-MEL-28", "GI50": "> 100 µM (inactive)"}
{"compound": "O=[N+]([O-])c1ccc2nc(Nc3ccccc3)c(Nc3ccccc3)nc2c1", "tgt": "SK-MEL-28", "GI50": "2.45 µM (inactive)"}
{"compound": "COc1ccc(C(O)c2ccc3c(c2)OCO3)cc1 (configuration not stated)", "tgt": "SK-MEL-28", "GI50": "> 100 µM (inactive)"}
{"compound": "COc1cc(/C=C2\\[C@H]3c4c(c(OC)c(C)c(OC)c4OC)C[C@@H](C(=O)N2Cc2ccccc2)N3C(=O)OCC(C)C)c(OC)c(C)c1OC", "tgt": "SK-MEL-28", "GI50": "> 100 µM (inactive)"}
{"compound": "S=c1sc2nc(Cl)nc(Cl)c2s1", "tgt": "SK-MEL-28", "GI50": "16.1 µM (inactive)"}
{"compound": "Cc1cc2c(cc1N)C(C)C1(CCC(=O)N2Cc2ccccc2)OCCO1 (configuration not stated)", "tgt": "SK-MEL-28", "GI50": "> 100 µM (inactive)"}
{"compound": "CN(C)CCn1c2c(c3ccccc31)CCc1ccccc1-2", "tgt": "SK-MEL-28", "GI50": "15.8 µM (inactive)"}
{"compound": "CO/C=C1\\OC(=O)C=C1OC", "tgt": "SK-MEL-28", "GI50": "> 100 µM (inactive)"}
{"compound": "O=C(c1ccncc1)C1C(=O)c2ccccc2C1C1(O)c2ccccc2CC1C(O)c1ccncc1 (configuration not stated)", "tgt": "SK-MEL-28", "GI50": "89.3 µM (inactive)"}

* * *

Tested on: MDA-MB-231
Assay: NCI tumour cell line growth inhibition, 48 h
Activity calls are given as the source filed them. Cut-off read from the data, not from the text of the source: active = GI50 up to about 1.1 µM and inactive = higher.
GI50 values by entry
test_readout: GI50

{"compound": "Cc1ccc(C(=O)NCc2ccccc2)cc1/N=N/N(C)C", "result": "> 100 µM (inactive)"}
{"compound": "O=C(CCc1ccccc1)On1c(-c2ccccc2)nc2ccccc2c1=S", "result": "51.5 µM (inactive)"}
{"compound": "Nc1ncnc2c1N=C(c1ccccc1)CC(c1ccccc1)N2 (stereo not given)", "result": "> 100 µM (inactive)"}
{"compound": "O=C(CC(=O)n1nc(-c2ccccc2)c(/N=N/c2ccccc2C(=O)O)c1-c1ccccc1)Nc1ccc(Cl)cc1", "result": "33.3 µM (inactive)"}
{"compound": "O=S1(=O)OCCOS(=O)(=O)C1Cc1nc2ccccc2[nH]1", "result": "43 µM (inactive)"}
{"compound": "COc1ccc(C2C(C)C(=O)C(C)C(c3ccc(OC)cc3)N2N=O)cc1 (stereo not given)", "result": "27.2 µM (inactive)"}
{"compound": "O=c1ccn2n1CCCCC2", "result": "> 100 µM (inactive)"}
{"compound": "CC(=O)Oc1ccc2c(C)cc(=O)oc2c1OC(C)=O", "result": "48.9 µM (inactive)"}
{"compound": "C=C1[C@@H]2CCC3[C@]4(C)C(CC[C@@]5(C)C(=O)O[C@H](O)[C@@H]45)[C@H](O)[C@]3(C2)[C@H]1OC1OC(CO)C(O)C(O)C1O (stereo not given in full)", "result": "> 50 µM (inactive)"}
{"compound": "c1ccc(N/N=N/c2ccc(-c3nc4ccccc4o3)cc2)nc1", "result": "36.6 µM (inactive)"}

* * *

System: SK-MEL-28
Test: NCI tumour cell line growth inhibition, 48 h
Calls of active or inactive are those of the source. No stated cut-off is given here; in the data, active = GI50 up to about 1.1 µM and inactive = higher.
test_readout: GI50

{"compound": "CC(C)c1ccccc1NC(=O)/C(Cl)=C1/Sc2ccccc2NC1=O", "test_readout": "GI50", "result": "33.4 µM (inactive)"}
{"compound": "CCOC(=O)c1cnn2c1ncc1c(=O)n(NC(N)=O)ccc12", "test_readout": "GI50", "result": "> 100 µM (inactive)"}
{"compound": "O=C1NCN(c2ccccc2)C12CCN(CCCN1CCN(CCOC(c3ccc(F)cc3)c3ccc(F)cc3)CC1)CC2", "test_readout": "GI50", "result": "2.47 µM (inactive)"}
{"compound": "C=CS(=O)(=O)c1c2cc(OC)ccc2nc2ccc(OC)cc12", "test_readout": "GI50", "result": "7.98 µM (inactive)"}
{"compound": "Cc1c(/C=N/NC(=O)c2ccccc2)c(=O)n(-c2ccccc2)n1C", "test_readout": "GI50", "result": "> 100 µM (inactive)"}
{"compound": "COC(=O)c1c(O)ccc2c1c1c(n2Cc2cccc(C)c2)C(=O)c2ccccc2C1=O", "test_readout": "GI50", "result": "15.3 µM (inactive)"}
{"compound": "CCCC(=O)N/S(=N/S(=O)(=O)c1ccc(Cl)cc1)C(Cl)(Cl)Cl (centres undefined)", "test_readout": "GI50", "result": "> 100 µM (inactive)"}
{"compound": "COC(=O)CNC(=O)CCC(C)[C@H]1CCC2C3C(C[C@H](OC(C)=O)[C@@]21C)[C@@]1(C)CCC2(C[C@H]1C[C@H]3OC(C)=O)OOC1(CCCCC1)OO2 (some centres undefined)", "test_readout": "GI50", "result": "9.29 µM (inactive)"}
{"compound": "O=C1C2=C(C3=NCCc4c[nH]c1c43)c1c(Br)cc(Br)cc1CCN2", "test_readout": "GI50", "result": "8.49 µM (inactive)"}
